# target_of_assay: HLA-B*15:01 (human)
# experimental_details: radioligand competition, purified MHC
# assay_setup: remark: other sources report otherwise
This section presents binders with their documented IC50 values.
measurement_type: IC50 (nM)

binder: KRVDWTIEY (modifications not checked) [… (SEQ ID NO: 29)]
measurement_type: IC50
measurement_units: nM
assay_result: 356
//
binder: FGDDTVIEV (modifications not checked) [… (SEQ ID NO: 23)]
measurement_type: IC50
measurement_units: nM
assay_result: 2380
